# Tested on: Caco-2 cells monolayer
# Experimental protocol: Bidirectional transport of indole alkaloids from GE and GM extracts across Caco-2 cells monolayer
# Assay type: in vitro ADME, Human
# Run conditions: GM without inhibitor
Documented efflux ratio γ (Papp BL-AP / Papp AP-BL) across a set of compounds
Give the figure only, with no unit attached.

Worked examples follow.
{"Compound": "CCC1=N[C@H]2C[C@@]3(C(=O)N(OC)c4ccccc43)[C@H]3C[C@@H]1[C@@H]2CO3", "System under test": "Caco-2 cells monolayer", "efflux ratio γ (Papp BL-AP / Papp AP-BL)": 2.39}
{"Compound": "C=CC12CN(C)C3C4COC(CC41)C1(C(=O)N(OC)c4ccccc41)C32 (centres unmarked)", "System under test": "Caco-2 cells monolayer", "efflux ratio γ (Papp BL-AP / Papp AP-BL)": 2.00}
{"Compound": "CCC1=NC2CC3(C(=O)N(OC)c4ccccc43)C3OCC2C1C3O (centres unmarked)", "System under test": "Caco-2 cells monolayer", "efflux ratio γ (Papp BL-AP / Papp AP-BL)": 2.93}
{"Compound": "C=C[C@]12CN(C)[C@@H]3[C@H]4CO[C@H](C[C@H]41)[C@]1(C(=O)Nc4ccccc41)[C@@H]32", "System under test": "Caco-2 cells monolayer", "efflux ratio γ (Papp BL-AP / Papp AP-BL)": 1.07}

Now, please, on to the next compound.
### Prompt Record request: efflux ratio γ (Papp BL-AP / Papp AP-BL) value, item C=C[C@@]12CN(C)[C@H]3C[C@]14C(=Nc1ccccc14)[C@H]1C[C@@H]2[C@@H]3CO1
### Response 1.13

----------
# System under test: P-gp (Homo sapiens)
# Construct: endogenous in cells; host or cells: Caco-2 cells (cell bank of Chinese Academy of Sciences)
# Sequence (P08183 whole entry): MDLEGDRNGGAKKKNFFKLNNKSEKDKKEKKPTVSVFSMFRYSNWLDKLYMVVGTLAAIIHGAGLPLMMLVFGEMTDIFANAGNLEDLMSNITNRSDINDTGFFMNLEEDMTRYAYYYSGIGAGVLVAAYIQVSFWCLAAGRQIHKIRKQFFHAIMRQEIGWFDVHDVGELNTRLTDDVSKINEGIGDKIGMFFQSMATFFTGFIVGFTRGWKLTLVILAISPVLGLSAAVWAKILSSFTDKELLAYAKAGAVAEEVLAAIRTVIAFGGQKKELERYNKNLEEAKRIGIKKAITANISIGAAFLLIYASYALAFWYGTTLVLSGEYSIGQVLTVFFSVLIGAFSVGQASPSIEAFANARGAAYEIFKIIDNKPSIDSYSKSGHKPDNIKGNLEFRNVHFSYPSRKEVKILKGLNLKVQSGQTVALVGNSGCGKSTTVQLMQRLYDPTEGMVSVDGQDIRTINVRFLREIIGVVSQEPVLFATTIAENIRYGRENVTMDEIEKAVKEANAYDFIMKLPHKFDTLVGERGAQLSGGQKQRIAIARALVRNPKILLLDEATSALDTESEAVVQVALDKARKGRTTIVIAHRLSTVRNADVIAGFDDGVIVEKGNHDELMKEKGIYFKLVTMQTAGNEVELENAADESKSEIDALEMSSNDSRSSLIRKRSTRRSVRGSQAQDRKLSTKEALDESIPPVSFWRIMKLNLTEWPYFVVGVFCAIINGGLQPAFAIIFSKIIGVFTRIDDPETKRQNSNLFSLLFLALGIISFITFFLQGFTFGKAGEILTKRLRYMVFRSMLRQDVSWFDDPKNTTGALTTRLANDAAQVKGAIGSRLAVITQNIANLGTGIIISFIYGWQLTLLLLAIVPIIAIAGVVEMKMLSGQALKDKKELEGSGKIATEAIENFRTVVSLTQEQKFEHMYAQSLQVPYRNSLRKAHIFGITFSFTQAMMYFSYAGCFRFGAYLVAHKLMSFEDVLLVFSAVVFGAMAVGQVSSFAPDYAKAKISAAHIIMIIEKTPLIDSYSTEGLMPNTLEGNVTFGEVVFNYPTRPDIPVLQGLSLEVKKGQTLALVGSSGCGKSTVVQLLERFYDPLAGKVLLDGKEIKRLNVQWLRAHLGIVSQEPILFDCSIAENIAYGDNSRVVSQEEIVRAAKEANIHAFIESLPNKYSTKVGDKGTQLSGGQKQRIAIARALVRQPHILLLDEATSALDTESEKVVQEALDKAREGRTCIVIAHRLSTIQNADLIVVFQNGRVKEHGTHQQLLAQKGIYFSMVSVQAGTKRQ
# Experimental protocol: Inhibition transport study: GM with verapamil (P-gp inhibitor) across Caco-2 cells monolayer
# Assay type: in vitro ADME
# Run conditions: human, Caco-2; GM + verapamil; read-out: efflux ratio γ (Papp BL-AP / Papp AP-BL)
Measured attribute: efflux ratio at 4 h

{"Compound": "CCC1=N[C@H]2C[C@@]3(C(=O)N(OC)c4ccccc43)[C@H]3C[C@@H]1[C@@H]2CO3 [Gelsenicine, gelsenicine]", "efflux ratio at 4 h": 1.4}

Now, please, on to the next compound.
### Prompt Record request: efflux ratio at 4 h value, item C=C[C@]12CN(C)[C@@H]3[C@H]4CO[C@H](C[C@H]41)[C@]1(C(=O)Nc4ccccc41)[C@@H]32 [Gelsemine, gelsemine]
### Response 1.09

----------
# System: P-gp and MRP2
# Experimental protocol: Inhibition transport study: GM with ciclosporin (P-gp and MRP2 inhibitor) across Caco-2 cells monolayer
# Assay type: in vitro ADME, Human
# Run conditions: human, Caco-2; GM + ciclosporin; read-out: efflux ratio γ (Papp BL-AP / Papp AP-BL)
Documented efflux ratio at 4 h across a set of molecules
Give the figure only, with no unit attached.

{"Molecule": "C=C[C@]12CN(C)[C@@H]3[C@H]4CO[C@H](C[C@H]41)[C@]1(C(=O)Nc4ccccc41)[C@@H]32 [Gelsemine, gelsemine]", "efflux ratio at 4 h": 1.1}

### Prompt Record request: efflux ratio at 4 h value, item CCC1=N[C@H]2C[C@@]3(C(=O)N(OC)c4ccccc43)[C@H]3C[C@@H]1[C@@H]2CO3 [Gelsenicine, gelsenicine]
### Response 1.42
